Test system: hT40, dGA, dGAE and truncated tau fragments
testMethodNotes: Binding ELISA / epitope mapping of anti-tau scAbs with truncated tau proteins and 13mer peptides
Parameters: species or system human
measurementConditions: Table 16; NS, S and M clones; incl. 13mer peptides
Method: A series of binding ELISA was performed using various truncated versions of the tau protein and 13mer peptide libraries spanning the entire hT40 molecule for mapping the epitopes of anti-tau scAbs (Full list of protein antigens used is given in Table 14). […] Binding was detected using anti-Human C Kappa HRP conjugated secondary antibody and the resulting immunoreaction was developed and absorbance values measured as described above. […]
propertyMeasured: Shortest region bound on hT40

// Shortest region bound on hT40 lookup, key: MD9: anti-tau clone, Table 10; SEQ ID NO: 373 (protein, MD9 amino acid sequence) scFv: QVRLQESGPSLVKSSQTLSLTCTVSGFSLTRESIAWVRQAPGKVPEWLGGVGIDGTSYYSPALKSRLSITRDTSKSQASLSLSSVATEDTAMYYCARNYIDFEYWGPGLLVTVSSEGKSSGASGESKVDDQAVLTQLSSVSGSLGQRISITCSGSSSNVGIYDVSWFQQLPGSGLRTVIYGTNNRPSGVPDRFSGSRSGNTATLTISSLQSEDEAIYYCAAGDSSTIAVFGSGTRLTVLG 373-385
